Values were extracted from paper PMC10786891.

Biological target: T1, EsCas13d, nuclease-dead (Eubacterium siraeum, UniProt B0MS50, R295A;H300A;R849A;H854A)
T1 sequence: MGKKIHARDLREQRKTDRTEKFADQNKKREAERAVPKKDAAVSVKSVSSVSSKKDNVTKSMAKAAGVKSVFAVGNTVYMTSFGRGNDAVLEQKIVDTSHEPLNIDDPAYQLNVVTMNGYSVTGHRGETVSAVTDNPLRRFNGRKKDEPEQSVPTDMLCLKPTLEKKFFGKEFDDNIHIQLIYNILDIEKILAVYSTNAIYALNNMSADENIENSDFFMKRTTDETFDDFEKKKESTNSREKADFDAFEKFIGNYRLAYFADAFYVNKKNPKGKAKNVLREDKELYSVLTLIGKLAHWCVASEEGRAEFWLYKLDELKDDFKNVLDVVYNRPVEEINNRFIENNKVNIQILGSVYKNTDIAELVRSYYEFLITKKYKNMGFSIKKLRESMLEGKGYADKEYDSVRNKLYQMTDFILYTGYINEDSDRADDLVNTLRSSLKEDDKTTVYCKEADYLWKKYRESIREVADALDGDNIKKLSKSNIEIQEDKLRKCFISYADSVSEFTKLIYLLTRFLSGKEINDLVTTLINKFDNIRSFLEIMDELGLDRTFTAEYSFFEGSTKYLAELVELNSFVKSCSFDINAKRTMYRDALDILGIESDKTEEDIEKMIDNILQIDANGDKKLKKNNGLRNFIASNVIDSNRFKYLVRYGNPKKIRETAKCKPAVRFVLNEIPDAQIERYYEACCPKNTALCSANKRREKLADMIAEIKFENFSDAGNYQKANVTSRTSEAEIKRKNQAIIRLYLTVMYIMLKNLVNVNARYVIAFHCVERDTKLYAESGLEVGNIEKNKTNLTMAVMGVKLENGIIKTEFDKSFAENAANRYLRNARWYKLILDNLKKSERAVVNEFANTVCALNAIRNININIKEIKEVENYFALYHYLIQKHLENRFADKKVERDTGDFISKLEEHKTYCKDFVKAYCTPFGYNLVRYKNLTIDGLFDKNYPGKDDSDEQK
Assay: crRNA (strand 1, pre-loaded); Mg2+; 40 mM Tris-HCl pH 7.5, 150 mM NaCl, 6 mM MgCl2, 1 mM DTT, 0.1% Tween-20, 0.2 mg/ml BSA; 25 C; 10 min per concentration, then washed
Settings: tags: His6-TwinStrep-SUMO cleaved; N-terminal SNAP kept (SNAP-Surface 488); label: 3' end held by stalled T7 RNA polymerase
What pKd was measured for each of the following?
Here pKd is given on a logarithmic scale as minus log10 of the concentration in mol/L.

Data request: Give me measured pKd, please, for this binder: target 3 insC 3' of 22,insU 3' of 22 (mixed) RNA 1: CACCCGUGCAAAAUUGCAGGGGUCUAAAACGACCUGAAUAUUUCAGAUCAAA RNA 2: GGGAAUGGAUCCACAUCUACGAAUUCGUUUCUUUGAUCUGAAAUAUUCAGGUCUGCAGAUCGGAAGAGCACACGU
Data returned: 7.72

Data request: Give me measured pKd, please, for this binder: target 2 MT 5'PFS AGC 3'PFS AAC (mixed) RNA 1: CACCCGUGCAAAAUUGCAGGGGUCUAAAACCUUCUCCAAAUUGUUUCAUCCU RNA 2: GGGAAUGGAUCCACAUCUACGAAUUCAGCAGGAUGAAACAAUUUGGAGAAGAACAGAUCGGAAGAGCACACGU
Data returned: 7.89

Data request: Give me measured pKd, please, for this binder: target 1 insC 3' of 13,insU 3' of 9 (mixed) RNA 1: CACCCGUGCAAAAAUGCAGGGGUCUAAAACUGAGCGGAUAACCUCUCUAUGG RNA 2: GGGAAUGGAUCCACAUCUACGAAUUCGUACCAUAGAGAGCGUUAUUCCGCUCACCGAGAUCGGAAGAGCACACGU
Data returned: 8.00

Data request: Give me measured pKd, please, for this binder: target 2 MT 5'PFS CUC 3'PFS CCG (mixed) RNA 1: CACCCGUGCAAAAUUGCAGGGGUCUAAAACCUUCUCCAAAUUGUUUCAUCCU RNA 2: GGGAAUGGAUCCACAUCUACGAAUUCCUCAGGAUGAAACAAUUUGGAGAAGCCGAGAUCGGAAGAGCACACGU
Data returned: 8.66

Data request: Give me measured pKd, please, for this binder: target 2 MT 5'PFS UCA 3'PFS UAG (mixed) RNA 1: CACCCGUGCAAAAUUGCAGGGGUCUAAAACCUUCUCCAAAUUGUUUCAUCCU RNA 2: GGGAAUGGAUCCACAUCUACGAAUUCUCAAGGAUGAAACAAUUUGGAGAAGUAGAGAUCGGAAGAGCACACGU
Data returned: 8.41

Data request: Give me measured pKd, please, for this binder: target 1 insU 3' of 12,insC 3' of 8 (mixed) RNA 1: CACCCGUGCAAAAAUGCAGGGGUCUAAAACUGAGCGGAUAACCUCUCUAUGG RNA 2: GGGAAUGGAUCCACAUCUACGAAUUCGUACCAUAGAGAGGUUUAUCCCGCUCACCGAGAUCGGAAGAGCACACGU
Data returned: 7.71

Data request: Give me measured pKd, please, for this binder: target 1 insG 3' of 22,insC 3' of 3 (mixed) RNA 1: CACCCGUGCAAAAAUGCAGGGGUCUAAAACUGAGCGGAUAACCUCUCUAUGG RNA 2: GGGAAUGGAUCCACAUCUACGAAUUCGUACGCAUAGAGAGGUUAUCCGCUCCACCGAGAUCGGAAGAGCACACGU
Data returned: 7.51

Data request: Give me measured pKd, please, for this binder: target 1 insG 3' of 20,insG 3' of 8 (mixed) RNA 1: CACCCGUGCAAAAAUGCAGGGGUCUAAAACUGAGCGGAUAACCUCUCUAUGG RNA 2: GGGAAUGGAUCCACAUCUACGAAUUCGUACCAGUAGAGAGGUUAUGCCGCUCACCGAGAUCGGAAGAGCACACGU
Data returned: 7.40
